Hello, the source for this data is the supplement of paper PMC10567573, in case you need it.

B1: SAT2 (parent)
chain: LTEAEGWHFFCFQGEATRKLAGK

Variants of: B1
test.name: protein stability index of a GFP-peptide fusion (GPS, HEK-293T) (PSI 1-6); higher = more stable;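 note: lentivirally expressed fusions sorted by FACS into six bins by GFP to DsRed ratio, PSI derived from sequencing read proportions per bin multiplied by bin number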
settings: c terminus: native
Form field: protein stability index (one value per entry).
Reply: number alone, nothing else.

[ask] For LTEAEGWHFFCFQQEATRKLAGK [G14Q] , what is its reported protein stability index?
[reply] 1.96

Next:
[ask] For LTEAEGYHFFCFQGEATRKLAGK [W7Y] , what is its reported protein stability index?
[reply] 2.58

[ask] For LTEAEGWHFFCFQGEATRKLARK [G22R] , what is its reported protein stability index?
[reply] 3.52

[ask] For LTEAEGWHQFCFQGEATRKLAGK [F9Q] , what is its reported protein stability index?
[reply] 3.63
